shrunken log2 fold change overview
# Test system: Escherichia coli TOP10
# assay procedure: shrunken log2 fold change of peptide-encoding DNA abundance (4.5 h post-induction vs induction); higher = less antimicrobial activity (less host growth inhibition)
# cond: time post-induction: 4.5 h; library: site-saturation at positions 5, 18, 19, 20
Reply briefly: the number, and no unit.

// solved cases for shrunken log2 fold change follow
>  <construct sequence>
RRIRYRPPRLPRPRPRPRHLPRP

>  <shrunken log2 fold change>
-0.142

$$$$
>  <construct sequence>
RRIRCRPPRLPRPRPRPNENPRP

>  <shrunken log2 fold change>
-0.0814

$$$$
>  <construct sequence>
RRIRIRPPRLPRPRPRPMRKPRP

>  <shrunken log2 fold change>
0.0125

$$$$
>  <construct sequence>
RRIRVRPPRLPRPRPRPLNIPRP

>  <shrunken log2 fold change>
-0.0458

$$$$
>  <construct sequence>
RRIRYRPPRLPRPRPRPKWSPRP

>  <shrunken log2 fold change>
-0.0252

$$$$
>  <construct sequence>
RRIRWRPPRLPRPRPRPYMMPRP

>  <shrunken log2 fold change>
-0.842

$$$$
>  <construct sequence>
RRIRIRPPRLPRPRPRPQTQPRP

>  <shrunken log2 fold change>
-0.244

$$$$
>  <construct sequence>
RRIRNRPPRLPRPRPRPNWPPRP

>  <shrunken log2 fold change>
0.142

$$$$

Ask: Quick one: shrunken log2 fold change for RRIRDRPPRLPRPRPRPHLGPRP ?
Reply: 0.0158

Ask: Quick one: shrunken log2 fold change for RRIRNRPPRLPRPRPRPFCHPRP ?
Reply: -0.476

Ask: Quick one: shrunken log2 fold change for RRIRVRPPRLPRPRPRPANGPRP ?
Reply: 0.136

---

# Test system: Escherichia coli TOP10
# assay procedure: shrunken log2 fold change of peptide-encoding DNA abundance (4.5 h post-induction vs induction); higher = less antimicrobial activity (less host growth inhibition)
# cond: time post-induction: 4.5 h; library: site-saturation at positions 5, 18, 19, 20
measured endpoint: shrunken log2 fold change
Reply briefly: the number, and no unit.

// solved cases for shrunken log2 fold change follow
>  <construct sequence>
RRIRTRPPRLPRPRPRPYPKPRP

>  <shrunken log2 fold change>
-0.0976

$$$$
>  <construct sequence>
RRIRWRPPRLPRPRPRPGPDPRP

>  <shrunken log2 fold change>
0.533

$$$$
>  <construct sequence>
RRIRNRPPRLPRPRPRPQSAPRP

>  <shrunken log2 fold change>
-0.073

$$$$
>  <construct sequence>
RRIRKRPPRLPRPRPRPCTCPRP

>  <shrunken log2 fold change>
0.00906

$$$$

Ask: Quick one: shrunken log2 fold change for RRIRKRPPRLPRPRPRPYCDPRP ?
Reply: 0.00748

Ask: Quick one: shrunken log2 fold change for RRIRSRPPRLPRPRPRPQQDPRP ?
Reply: -0.164

---

# Test system: Escherichia coli TOP10
# assay procedure: shrunken log2 fold change of peptide-encoding DNA abundance (4.5 h post-induction vs induction); higher = less antimicrobial activity (less host growth inhibition)
# cond: time post-induction: 4.5 h; library: site-saturation at positions 5, 18, 19, 20
Returns true if the recorded shrunken log2 fold change is greater than or equal to 0.08, and false otherwise.

>  <construct sequence>
RRIRCRPPRLPRPRPRPLAQPRP

>  <assay target>
Escherichia coli TOP10;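 further: peptides expressed intracellularly from a pBAD plasmid library in pooled LB shake-flask culture, induced with 0.3% L-arabinose, DNA abundance read by NGS, three biological replicates, DESeq2 with apeglm shrinkage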

>  <class label>
true

$$$$

Switching to the query record.
Ask: Given the entry RRIRIRPPRLPRPRPRPSKRPRP , answer whether its shrunken log2 fold change meets or surpasses 0.08.
Reply: false
